Test system: HSkMC (human skeletal muscle cells)
Test: cytotoxicity call (relative viability < 0.9)
Settings: 10 µM
Hit rate of the full screen: of about 39,000 compounds, about 1,500 (3.8%) were called active. What follows is part of a selection rich in actives, with near analogues and random picks from the rest.
Your reply should match one of these outcome classes. yes for active, no for inactive

The following compounds have reported results that may help.
# smiles.notation, category.label
records = [
    ("O=C(NCC(F)(F)F)[C@@H]1[C@@H](CO)[C@@H]2Cn3c(cccc3=O)[C@H]1N2C(=O)C1CCC1", "no"),
    ("C[C@@H]1CN([C@H](C)CO)C(=O)c2cc(NC(=O)Nc3ccc(C(F)(F)F)cc3)ccc2O[C@@H](C)CCCCO[C@H]1CN(C)S(=O)(=O)c1cn(C)cn1", "no"),
    ("Cc1noc(C)c1NC(=O)Nc1ccc2c(c1)CC(=O)N([C@@H](C)CO)C[C@H](C)[C@H](CN(C)S(=O)(=O)c1c(C)noc1C)O2", "no"),
]

Please find the next compound below.
-- ask Recorded call for CCCCCCCCCCCCCCCC[N+](C)(C)CCN(Cc1ccc(OC)cc1)c1ncccn1 ?
-- reply yes

# credit: the antibiotic and cytotoxicity screens of Wong et al. (2023)
